Measured values drawn from patent US8133506B2 for this set.

- EXPERIMENT DESCRIPTION: pH-dependent solubility in aqueous buffer
- CONDITION: pH 5.4, aqueous buffer
METRIC: solubility (µg/mL)
Answers are plain numbers, in µg/mL.

Incoming: Item under review: O=C1CN=C(c2ccccc2Cl)c2cc([N+](=O)[O-])ccc2N1 . Reported solubility?
Outgoing: 8.4

---

- EXPERIMENT DESCRIPTION: physchem
- CONDITION: pH 4.46, aqueous buffer, Solubility of Iloperidone in Aqueous Buffer
METRIC: solubility (µg/mL)
Answers are plain numbers, in µg/mL.

Incoming: Reported solubility, compound COc1cc(C(C)=O)ccc1OCCCN1CCC(c2noc3cc(F)ccc23)CC1 [Iloperidone] : ____
Outgoing: 586

---

- EXPERIMENT DESCRIPTION: physchem
- CONDITION: pH 3.49, aqueous buffer
Structures can show the parent of a compound that is named as a salt.
METRIC: solubility

Incoming: So what does the record say about solubility for Cc1nccn1CC1CCc2c(c3ccccc3n2C)C1=O (stereo not shown) [Ondansetron HCl, ondansetron hydrochloride] ?
Outgoing: 26 mg/mL

---

- EXPERIMENT DESCRIPTION: physchem
- CONDITION: pH 2.4, aqueous buffer
Counter-ions that a name gives are not always drawn.
METRIC: solubility (mg/mL)
Answers are plain numbers, in mg/mL.

Incoming: Which solubility value belongs to Cc1nccn1CC1CCc2c(c3ccccc3n2C)C1=O (stereo not shown) [Ondansetron HCl, ondansetron hydrochloride] ?
Outgoing: 26.1

---

- EXPERIMENT DESCRIPTION: Solubility in organic acid buffers (fumaric, aspartic, glutamic acid)
- CONDITION: pH 3.2, aqueous buffer
METRIC: solubility (µg/mL)
Give bare numbers, in µg/mL.

Incoming: Fill in the blank: the reported solubility of O=C1CN=C(c2ccccc2Cl)c2cc([N+](=O)[O-])ccc2N1 is ____.
Outgoing: 9.6

---

- EXPERIMENT DESCRIPTION: pH-dependent solubility in aqueous buffer
- CONDITION: pH 4.8, aqueous buffer
METRIC: solubility (µg/mL)
Numbers only, in µg/mL.

Incoming: // lookup solubility for O=C1CN=C(c2ccccc2Cl)c2cc([N+](=O)[O-])ccc2N1
Outgoing: 8.6

---

- EXPERIMENT DESCRIPTION: Solubility in organic acid buffers (fumaric, aspartic, glutamic acid)
- CONDITION: pH 5.5, aqueous buffer
METRIC: solubility (µg/mL)
Give bare numbers, in µg/mL.

Incoming: Record request: solubility value, item O=C1CN=C(c2ccccc2Cl)c2cc([N+](=O)[O-])ccc2N1
Outgoing: 290

---

- EXPERIMENT DESCRIPTION: pH-dependent solubility in aqueous buffer
- CONDITION: pH 2.8, aqueous buffer
METRIC: solubility
Answer by giving the amount and then stating its unit.

Incoming: Fill in: solubility of O=C1CN=C(c2ccccc2Cl)c2cc([N+](=O)[O-])ccc2N1 is ___
Outgoing: 10.2 µg/mL

---

- EXPERIMENT DESCRIPTION: physchem
- CONDITION: pH 4.08, aqueous buffer, Solubility of Iloperidone in Aqueous Buffer
METRIC: solubility (µg/mL)
Give bare numbers, in µg/mL.

Incoming: // query solubility value for entry COc1cc(C(C)=O)ccc1OCCCN1CCC(c2noc3cc(F)ccc23)CC1 [Iloperidone]
Outgoing: 681
